Biological target: T1, Human ST2 (human, UniProt Q01638 19-328, limits assumed)
T1 construct: also called human ST2 protein; Interleukin 1 receptor-like 1
T1 sequence (looked up): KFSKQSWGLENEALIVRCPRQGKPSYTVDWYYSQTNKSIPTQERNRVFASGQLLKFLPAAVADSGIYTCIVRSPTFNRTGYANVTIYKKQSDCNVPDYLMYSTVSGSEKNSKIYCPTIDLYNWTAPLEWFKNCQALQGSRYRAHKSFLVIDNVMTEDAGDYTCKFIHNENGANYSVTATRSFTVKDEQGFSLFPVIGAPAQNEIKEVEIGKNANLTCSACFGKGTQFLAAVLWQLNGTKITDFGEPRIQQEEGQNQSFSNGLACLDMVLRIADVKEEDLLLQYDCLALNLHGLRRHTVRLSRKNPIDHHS
Assay: SPR (Carterra), antibody immobilized, ST2 analyte
// values below are reported kon
The answer is to be given in M⁻¹ s⁻¹; state only the numeric part.

Below: 2 binders and their reported kon.
For the binder Human ST2 IgG1 Antibody 34 (antibody, V domains shown, IgG1; also called ST2 Antibody 34) VH: QVQLVQSGAEVKKPGASVKVSCKASGQTFTDYAINWVRQAPGQGLEWMGWMNPNSGNTGYAQKFQGRVTMTRDTSTSTVYMELSSLRSEDTAVYYCARETLEQQLPFDYWGQGTLVTVSS VL: DIQMTQSPSSLSASVGDRVTITCRASQSISSWLAWYQQKPGKAPKLLIYAASTLQSGVPSRFSGSGSGTDFTLTISSLQPEDFATYYCQQYYSTLYTFGQGTKVEIKR , give its measured kon value.
10000

Consider the binder Human ST2 IgG1 Antibody 9 (antibody, V domains shown, IgG1; also called ST2 Antibody 9) VH: EVQLLESGGGLVQPGGSLRLSCAASGFAFSSHWMHWVRQAPGKGLEWVATISSGSHSIHYADSVKGRFTISRDNSKNTLYLQMNSLRAEDTAVYYCAREAGTSYYYYGMDVWGKGTTVTVSS VL: DIQMTQSPSSLSASVGDRVTITCQASQDIRNYLNWYQQKPGKAPKLLIYKASSLESGVPSRFSGSGSGTDFTLTISSLQPEDFATYYCQQSYSTPPTFGGGTKVEIKR . State its measured kon.
120000

Continue with the binder presented below.
Could you please provide reported kon for Human ST2 IgG1 Antibody 70 (antibody, V domains shown, IgG1; also called ST2 Antibody 70) VH: QVQLVQSGAEVKKPGSSVKVSCKASGYAFTDYFIHWVRQAPGQGLEWMGGIIPIFGTANYAQKFQGRVTITADKSTSTAYMELSSLRSEDTAVYYCARVAYGAFDIWGQGTMVTVSS VL: EIVMTQSPATLSVSPGERATLSCRASQSVSSSYLAWYQQKPGQAPRLLIYGASTRATGIPARFSGSGSGTEFTLTISSLQSEDFAVYYCQQYNNWPLTFGGGTKVEIKR ? Thanks!
370000
